Tested on: Rattus norvegicus
Assay explanation: Percent change in variable interval unpunished responding phase (VI) after administration of 20 mg/Kg oral dose in rat Geller-Seifter test.
Assay type: functional
Endpoint label: Change (%)
Only the number, expressed in %, is required.

A selection of reference data follows.
{"Compound": "CC1CCc2nc3sc4c(c3c(N)c2C1=O)CCC4 (centres undefined)", "Uom": "%", "Measured number": 0}
{"Compound": "CC1CCc2nc3sc4ccccc4c3c(N)c2C1=O (centres undefined)", "Uom": "%", "Measured number": 0}
{"Compound": "CC1CCc2nc3c(c(N)c2C1=O)c1ccccc1n3C (centres undefined)", "Uom": "%", "Measured number": 0}

Turning to the following compound.
IN: Quick one: Change for CCOC(=O)c1c(C)nc2c(c1N)c1ccccc1n2C ?
OUT: -3

====

Listing of entries alongside the reported IC50.
Target or system: GABA-A receptor; anion channel
Assay explanation: Inhibition of [3H]flunitrazepam binding to GABA-A receptor
Type: protein-complex assay, Rattus norvegicus

{"Compound": "Nc1c2c(nc3sc4c(c13)CCCCC4)CCCC2=O", "IC50": "> 100 µM"}
{"Compound": "COC(=O)c1c(C)nc2c(c(C)c(C)n2C)c1N", "IC50": "> 100 µM"}

IN: Identify the measured IC50 of Cn1c2ccccc2c2cc3c(nc21)CCCC3=O for GABA-A receptor; anion channel.
OUT: > 100 µM

IN: Would you kindly repeat that for CCOC(=O)c1c(C)nc2c(c1N)c1ccccc1n2C ?
OUT: > 100 µM

IN: What would you report for CC1CCc2nc3c(c(N)c2C1=O)c1c(n3C)CCCC1 (stereo unspecified) ?
OUT: 18 µM

IN: What about this compound? CC1CCc2nc3c(c(N)c2C1=O)c1ccccc1n3C (stereo unspecified)
OUT: > 100 µM

====

Consider the following molecules and their measured Nr/N readings.
Species on record: Rattus norvegicus
Assay explanation: Number of animals responding to the above phases out of 6 tested, expressed as Nr/N
Type: functional
Output spec: single numeric token, no unit.

Answered cases to consult:
{"Molecule": "CC1CCc2nc3c(c(N)c2C1=O)c1ccccc1n3C (stereo not given)", "Measured number": 5}
{"Molecule": "CC1CCc2nc3sc4c(c3c(N)c2C1=O)CCC4 (stereo not given)", "Measured number": 5}
{"Molecule": "Cn1c2ccccc2c2cc3c(nc21)CCCC3=O", "Measured number": 3}
{"Molecule": "CC1CCc2nc3sc4ccccc4c3c(N)c2C1=O (stereo not given)", "Measured number": 5}

IN: Any idea what its Nr/N is? The molecule is CC1CCc2nc3c(c(N)c2C1=O)c1c(n3C)CCCC1 (stereo not given)
OUT: 5

====

Target or system: GABA-A receptor; anion channel
Assay explanation: In vitro inhibition of [35S]t-butyl-bicyclophosphorothionate (TBPS) binding to Gamma-aminobutyric acid A (GABA-A) receptor
Type: protein-complex assay, Rattus norvegicus
Form field: pIC50 (one value per entry).
The quantity pIC50 is defined as the negative base-10 logarithm of the molar concentration.

{"Compound": "Cn1c2c(c3c(N)c4c(nc31)CCCC4=O)CCCC2", "Target or system": "GABA-A receptor; anion channel", "pIC50": 5.20}
{"Compound": "CC1CCc2nc3sc4ccccc4c3c(N)c2C1=O (stereo unspecified)", "Target or system": "GABA-A receptor; anion channel", "pIC50": 6.34}
{"Compound": "COC(=O)c1c(C)nc2sc3c(c2c1N)CCCC3", "Target or system": "GABA-A receptor; anion channel", "pIC50": 5.12}

IN: Look up pIC50 with GABA-A receptor; anion channel for this compound: CC1CCc2nc3sc4c(c3c(N)c2C1=O)CCCC4 (stereo unspecified)
OUT: 5.80
